- System: mutant cell line CHO-MG without PTS
- Assay procedure: Anti-proliferative effect on CHO-MG cells without PTS, counting of cell nuclei
- Assay type: cell-based, hamster
- Measurement context: selectivity of recognition by the PTS
Endpoint name: Ratio IC50 (CHO-MG/CHO)
Give only the figure.

Asked: What Ratio IC50 (CHO-MG/CHO) value was documented for this compound, NCCCCNCCCCNCCCCNCc1ccc2cccc(O)c2n1 ?
Given back: 38

Asked: GET /values?readout=Ratio IC50 (CHO-MG/CHO)&item= NCCCNCCCCNCCCCNCc1ccc2cccc(O)c2n1
Given back: 13

Asked: # lookup: Ratio IC50 (CHO-MG/CHO) of Oc1cccc2cccnc12 [8-hydroxyquinoline, reference compound]
Given back: 2

Asked: Would you kindly share the measured Ratio IC50 (CHO-MG/CHO) for O=C(O)c1ccc(-n2nc(-c3ccccc3O)nc2-c2ccccc2O)cc1 [ICL670, reference compound] ?
Given back: 1

Asked: Could you tell me which Ratio IC50 (CHO-MG/CHO) is on file for NCCCCNCCCCNCc1ccc2cccc(O)c2n1 ?
Given back: 249

Asked: Any idea what its Ratio IC50 (CHO-MG/CHO) is? The compound is NCCCNCCCNCc1ccc2cccc(O)c2n1
Given back: 21

Asked: // returns reported Ratio IC50 (CHO-MG/CHO) for input NCCCNCCCNCCCNCc1ccc2cccc(O)c2n1
Given back: 18
